Tested on: HT-29 cells
TEST: In vitro anti-proliferative activity against HT-29 cells (intracellular ATP content, 72 h)
Format: cell-based
RECORDED_CONDITIONS: Homo sapiens, 72 h after dosing
Protocol: Biological Example 2. In Vitro Anti-Proliferative Activity of the Compounds of the Present Invention Against HT-29 Cells HT-29 cells were seeded on a 384-well plate at 3000 cells/well. […] The viability of the cells was assessed 72 h after dosing by measuring the intracellular ATP content. The inhibition percentages of viable cells by the compounds were calculated by comparing with the DMSO group, and the IC50 values were also calculated.
Classification by IC50 follows these ranges: Low: < 50 nM; Mid: ≥ 50 nM and < 100 nM; High: ≥ 100 nM

Sort into band: O=C(Nc1ccc([N+](=O)[O-])c(N2CCC(F)(F)CC2)n1)c1cnc(NS(=O)(=O)CCO)cc1N1CCC2(CC1)CC2 High

Sort into band: O=C(Nc1ccc([N+](=O)[O-])c(N2CCC3(CC3)C2)c1)c1ccc(NS(=O)(=O)CCO)cc1N1CCC2(CC1)CC2 High

Sort into band: O=C(Nc1ccc(OCF)c(N2CCC(F)(F)CC2)c1)c1ccc(NS(=O)(=O)CCO)cc1N1CCC2(CC1)CC2 High

Sort into band: O=C(Nc1ccc([N+](=O)[O-])c(N2CC(F)(F)C2)c1)c1ccc(NS(=O)(=O)CCO)cc1N1CCC2(CC1)CC2 High

Sort into band: CNc1ccc(NC(=O)c2ccc(NS(=O)(=O)CCO)cc2N2CCC3(CC2)CC3)nc1N1CCC(F)(F)CC1 Low

Sort into band: COc1ccc(NC(=O)c2cnc(S(=O)(=O)NCCO)cc2N2CCC3(CC2)CC3)nc1N1CCC(F)(F)CC1 Low

Sort into band: COc1ccc(NC(=O)c2ccc(NS(=O)(=O)CCO)cc2N2CCC3(CC2)CC3)nc1OCCC(F)(F)F Mid

Sort into band: CN(C)c1ccc(NC(=O)c2ccc(NS(=O)(=O)CCO)cc2N2CCC3(CC2)CC3)cc1N1CCC(F)(F)CC1 Mid
